Origin of the recorded values: ChEMBL document CHEMBL1201862

system: RPMI-8226; experiment: NCI tumour cell line growth inhibition, 48 h
Activity calls are given as the source filed them. Rule as the data show it: active = GI50 up to about 1.1 µM and inactive = higher.
// reported GI50 for each item listed
outcome measure: GI50

In [3]: df
Out[3]:
                                   molecule  outcome_measure             measured
0  COc1ccc2c(c1)N(CCC1CCCCN1C)c1ccccc1S2 (stereo not given) [OXYRIDAZINE]             GI50   12.4 µM (inactive)
1  CCSC1=CC2(O)N(CCc3ccc(OC)c(OC)c3)C(=O)CC2(C(=O)OC)CC1=O (stereo not given)             GI50   29.4 µM (inactive)
2  N#Cc1nc(C2OC(COC(=O)c3ccccc3)C(OC(=O)c3ccccc3)C2OC(=O)c2ccccc2)oc1N (stereo not given)             GI50    2.1 µM (inactive)
3  C/C1=C\CC[C@@]2(C)O[C@@H]2C[C@@H]2[C@H](C/C(C)=C/CC1)OC(=O)C21CC1             GI50   12.1 µM (inactive)
4  C/C=C\C(CC(=O)NCC(=O)c1c[nH]c2ccccc12)CC(=O)OC (stereo not given)             GI50  > 100 µM (inactive)
5  Nc1ccn(C2OC(COP(=O)(O)O)C(O)C2O)c(=O)n1 (stereo not given)             GI50  > 100 µM (inactive)
6           N#Cc1c(N)nc(S)c(C#N)c1-c1ccccc1             GI50  > 100 µM (inactive)
7  O=C1NC2OC(CO)C(O)C(O1)C2O (stereo not given)             GI50  > 100 µM (inactive)
8  C(=N\Nc1ccc(-c2nc3ccccc3[nH]2)cc1)/c1c(-c2ccc(Cc3ccccc3)cc2)[nH]c2ccccc12             GI50   3.08 µM (inactive)
9  O=C(Nc1cccc(C(F)(F)F)c1)c1cc(Br)cc(Br)c1O [FLUOROSALAN]             GI50   2.08 µM (inactive)

====

tested on: HCT-15
Bucketed by reported GI50, buckets being bottom bin (below 5 µM), middle bin (5 µM to below 50 µM), top bin (50 µM or more)

compound	tgt	class
CN(C)CCC(/C=C/c1ccccc1)=N\Nc1ccc(Cl)c(Cl)c1	HCT-15	bottom bin
S=C(N1CCN(c2cccc(Cl)c2)CC1)N1CCN(c2cccc(Cl)c2)CC1	HCT-15	top bin
COc1cc(C(=O)N(C(=S)OCc2ccccn2)c2ccccc2)cc(OC)c1OC	HCT-15	middle bin
CC(C)[C@H]1NC(=O)[C@H]2N=C(O[C@@H]2C)[C@@H]2CCCN2C(=O)[C@H](Cc2ccccc2)NC(=O)[C@@H]2CSC(=N2)[C@@H](Cc2ccccc2)NC(=O)[C@@H]2CSC1=N2	HCT-15	top bin
CCc1nc(N)nc(N)c1-c1ccc(NCCc2ccccc2)c([N+](=O)[O-])c1	HCT-15	bottom bin
Cc1cc2c(c(=O)n1C)SCC2	HCT-15	top bin
N=c1sc2ccccc2n1CC[S-].c1ccc2c(c1)sc1[n+]2CCS1	HCT-15	middle bin
CCN(CC)c1cccc2c1C1(O)CCC3(CC21)OCCCCO3 (centres undefined)	HCT-15	top bin
O=C1/C(=C/c2ccc(Cl)cc2)CSC/C1=C\c1ccc(Cl)cc1	HCT-15	middle bin
COc1ccc(NC(=O)CC2S/C(=N\c3ccccc3C)NC2=O)c([N+](=O)[O-])c1 (centres undefined)	HCT-15	top bin
Nc1nc(Cl)nc2c1ncn2C1CC(O)C(CO)O1 (centres undefined)	HCT-15	middle bin
CC(=O)Oc1ccc(/C=C/C(=O)NCC(NC(=O)/C=C/c2ccc(OC(C)=O)c(OC(C)=O)c2)C(=O)O)cc1OC(C)=O (centres undefined)	HCT-15	top bin
C/C(=C\c1ccccc1)C(=O)NCc1ccc(C(=O)NCCc2c[nH]c3ccccc23)cc1	HCT-15	top bin
O=C1CCCN1CCC/N=c1/cc2n(-c3ccc(Cl)cc3)c3ccccc3nc-2cc1Nc1ccc(Cl)cc1	HCT-15	bottom bin
CCN(C(=S)N[C@H](C(=O)N[C@@H](C)C(=O)OC)C(C)C)c1ccccc1	HCT-15	top bin
O=C(Nc1cccc(C(F)(F)F)c1)c1cc(Br)cc(Br)c1O	HCT-15	bottom bin
Cc1ccc(S(=O)(=O)OCCN(CCOS(=O)(=O)c2ccc(C)cc2)c2ccc(C=O)cc2)cc1	HCT-15	middle bin
O=C1/C(=C2\Sc3c(ccc(Cl)c3Cl)C2=O)Sc2c1ccc(Cl)c2Cl	HCT-15	top bin
Cc1nnc(N/N=C2/C(=O)Nc3ccccc32)nc1O	HCT-15	top bin

====

test system: SF-295; experiment: NCI tumour cell line growth inhibition, 48 h
Calls of active or inactive are those of the source. No stated cut-off is given here; in the data, active = GI50 up to about 1.1 µM and inactive = higher.

molecule	GI50
CC1CC[C@@]2(OC1)OC1C[C@H]3[C@@H]4CC[C@H]5CC(OC6OC(CO)C(O)C(OC7OC(CO)C(OC8OC(CO)C(O)C(OC9OC(CO)C(O)C(O)C9O)C8OC8OC(CO)C(O)C(O)C8O)C(O)C7O)C6O)[C@H](O)CC5(C)[C@H]4CCC3(C)C1[C@@H]2C (some centres not stated)	2.99 µM (inactive)
CCSC1=CC2(O)N(CCc3ccc(OC)c(OC)c3)C(=O)CC2(C(=O)OC)CC1=O (configuration not stated)	> 100 µM (inactive)
Oc1ccc2ccccc2c1NCn1nc(CCCCCCCCc2nn(CNc3c(O)ccc4ccccc34)c(=S)o2)oc1=S	> 100 µM (inactive)
N#Cc1c(-c2ccccc2)cc(Nc2ccc(Cl)cc2)n2c1nc1ccccc12	3.4 µM (inactive)
CCOC(=O)C1(C#N)C(=O)c2cc[n+](CC[n+]3ccc4c(c3)C(=O)C(C#N)(C(=O)OCC)C4=O)cc2C1=O (configuration not stated)	> 100 µM (inactive)
CC(=O)c1c(-c2ccccc2)c(-c2ccc(OCCN(C)C)cc2)n2ccccc12	17.2 µM (inactive)
CN(C)c1ccc(/C=c2/c3ccccc3n3c2cc(NC(=O)NCCC[N+](C)(C)C)[n+]3C)cc1	53.7 µM (inactive)

====

system: A549; assay: NCI tumour cell line growth inhibition, 48 h
Active and inactive are the calls of the source. Rule as the data show it: active = GI50 up to about 1.1 µM and inactive = higher.
Outcome codes: active, inactive

>>> print(df.to_string())
                                    compound     class
 0  CNc1ncnc2c1cnn2Cc1cn(COCC(O)CO)nn1 (configuration not stated)  inactive
 1          Cc1cc(=O)oc2c(C)c3oc(CBr)cc3cc12  inactive
 2  COC1=CCC2=C(CCN(C(=O)C3CC3)C2Cc2ccc(OC)c(O)c2)C1 (configuration not stated)  inactive
 3  C/C(CC(=O)Nc1ccc([N+](=O)[O-])cc1)=N\NC(N)=O  inactive
 4  O=[N+]([O-])c1ccc2oc(=N/c3ccccc3)/c(=N\c3ccccc3)[nH]c2c1  inactive
 5                   COCCCNC(=O)CC(=O)NCCCOC  inactive
 6  N#CC(C(=O)C(=O)C(C#N)c1ccc(Br)cc1)c1ccc(Br)cc1 (configuration not stated)  inactive
 7                     CCCCn1cnc2c(SC)ncnc21  inactive
 8  C(=N\Nc1ccc(-c2nc3ccccc3[nH]2)cc1)/c1c(-c2ccc(Cc3ccccc3)cc2)[nH]c2ccccc12  inactive
 9  C1=N\CCN2CCN(CC/N=C\c3ccccc3OCc3cccc(n3)COc3ccccc3/1)CC2  inactive
10  CCN(CC)c1cccc2c1C1(O)CCC3(CC21)OCCCCO3 (configuration not stated)  inactive
11        c1ccc2c[n+](Cc3ccnc4ccccc34)ccc2c1  inactive
12  COC(=O)C1=C(O)c2cc(-c3ccccc3)c(-c3ccccc3)c(C#N)c2NC(=O)C1  inactive
13  O=C(O)c1c2c(cc3c(=O)c4ccccc4[nH]c13)CCCC2  inactive
14     O=C1CCCCC/C1=C\c1ccc([N+](=O)[O-])cc1  inactive
15  COC(=O)C1C(C(=O)OC)C2(OC)c3ccccc3-c3ccccc3C12 (configuration not stated)  inactive
16  Cc1ccc(S(=O)(=O)NNC(=S)Nc2cccc3ccccc23)cc1  inactive
17  CN1N(c2ccccc2)C(=O)C2=NC=C(C#N)C(=N)C21C (configuration not stated)  inactive
18  CCN(CCCl)c1cc(CN(C)C)cc(NC(=O)c2cc(C(=O)Nc3cc(CN(C)C)cc(N(CC)CCCl)c3)n(C)n2)c1    active
19  CCOC(=O)c1c(/C=N\Nc2ccccc2)nc2ccccc2c1-c1ccccc1  inactive
20       CS(=O)(=O)Oc1cccc(/C=N/N=C(\N)NO)c1  inactive
21                 O=C1NC(=S)N(c2ccccc2)C1=O  inactive

====

test system: HT-29; assay: NCI tumour cell line growth inhibition, 48 h
Calls of active or inactive are those of the source. Cut-off read from the data, not from the text of the source: active = GI50 up to about 1.1 µM and inactive = higher.
Outcome codes: active, inactive

compound	class
CC1CN(c2cc3c(cc2F)c(=O)c(C(=O)O)cn3-c2ccc(N3CCN(C)CC3)cn2)CC(C)N1 (configuration not stated)	inactive
COc1ccc(C(=O)/C=C/c2ccc(O)c(O)c2)c(OC)c1	inactive
CC(=O)NC(Cc1ccc(O)cc1)C(=O)O (configuration not stated)	inactive
CCOP(=O)(OCC)/C(C#N)=C/c1[nH]cnc1C	inactive
Nc1nc2cc3nc(N)c(N)nc3cc2nc1N	inactive
N#Cc1c(-c2ccccc2)cc(Nc2ccc(Cl)cc2)n2c1nc1ccccc12	inactive
CCSC1=CC2(O)N(CCc3ccc(OC)c(OC)c3)C(=O)CC2(C(=O)OC)CC1=O (configuration not stated)	inactive
C=C1CC(Cn2cc(Br)c(=O)[nH]c2=O)(c2ccc(Br)cc2)OC1=O (configuration not stated)	inactive
C/C=C\C(CC(=O)NCC(=O)c1c[nH]c2ccccc12)CC(=O)OC (configuration not stated)	inactive
COc1ccc(-c2c(C(C)=O)c(-c3ccccc3)n(C3OC(COC(C)=O)C(OC(C)=O)C(OC(C)=O)C3OC(C)=O)c(=S)c2C#N)cc1O (configuration not stated)	inactive
CC(=O)c1c(-c2ccccc2)c(-c2ccc(OCCN(C)C)cc2)n2ccccc12	inactive
C=C=C(Sc1ccccc1)C(C)(C)O	inactive
C/C(CC(=O)Nc1ccc([N+](=O)[O-])cc1)=N\NC(N)=O	inactive
COC(=O)C(Cc1ccc2c(c1)OCO2)(NC(=O)c1ccccc1)P(=O)(OC)OC (configuration not stated)	inactive
CC1CC[C@@]2(OC1)OC1C[C@H]3[C@@H]4CC[C@H]5CC(OC6OC(CO)C(O)C(OC7OC(CO)C(OC8OC(CO)C(O)C(OC9OC(CO)C(O)C(O)C9O)C8OC8OC(CO)C(O)C(O)C8O)C(O)C7O)C6O)[C@H](O)CC5(C)[C@H]4CCC3(C)C1[C@@H]2C (some centres not stated)	inactive
Cc1ccccc1C1CC(c2ccccc2)=NO1 (configuration not stated)	inactive
CC(=O)c1c(-c2ccc(Cl)cc2)c(C#N)c(=S)n(C2OC(CO)C(O)C(O)C2O)c1C (configuration not stated)	inactive
O=C(CC1(O)C(=O)Nc2ccccc21)c1ccccc1Cl (configuration not stated)	inactive
CS(=O)(=O)CS(=O)(=O)OCCCl	inactive
Cc1c(-c2ccccc2)c(=O)oc2ccc(Cl)cc12	inactive
O=[N+]([O-])c1cccc(/C=N/C23CC4CC(CC(C4)C2)C3)c1	inactive
O=C(O)c1c2c(cc3c(=O)c4ccccc4[nH]c13)CCCC2	inactive
Cc1ccc(S(=O)(=O)NC(CCC(=O)NNc2ccccc2)C(=O)NNc2ccccc2)cc1 (configuration not stated)	inactive
Cc1ncc([N+](=O)[O-])n1CCNC(=O)CCCCCn1ccnc1[N+](=O)[O-]	inactive
Clc1nc2c(C#Cc3ccccc3)ncnc2n1C1CCCCO1 (configuration not stated)	inactive
C/C1=C\CC[C@@]2(C)O[C@@H]2C[C@@H]2[C@H](C/C(C)=C/CC1)OC(=O)C21CC1	inactive
CC[C@]1(O)CC(OC2CC(N(C)C)C(O)C(C)O2)c2c(cc3c(c2O)C(=O)c2c(O)cccc2C3=O)[C@@H]1C(=O)OC (some centres not stated)	active
Cc1cc(C)nc(NS(=O)(=O)c2ccc(Nc3c4ccccc4nc4c(C(=O)NCCN(C)C)cccc34)cc2)n1	inactive
S=C(/N=c1/sc(Nc2ccccc2)nc2sc3c(c12)CCCC3)Nc1ccccc1	inactive
CS(=O)(=O)Oc1cccc(/C=N/N=C(\N)NO)c1	inactive
COc1cccc(CCNC(=O)Cc2ccccc2CCO)c1	inactive
Nc1ccn(C2OC(COP(=O)(O)O)C(O)C2O)c(=O)n1 (configuration not stated)	inactive
CC(C)(C)NC(=O)/C(=C\Sc1ccccc1)c1ccccc1	inactive
O=c1cc(NNc2ccccc2)[nH]c(=S)[nH]1	inactive
CCOC(=O)COc1ccc2c(C)cc(=O)oc2c1	inactive
COc1cc(C(=O)NO)ccc1O	inactive
Clc1ccc(/C=N/c2ccc3c(c2)Cc2ccccc2-3)c(Cl)c1	inactive
O=C1/C(=C2\Sc3c(ccc(Cl)c3Cl)C2=O)Sc2c1ccc(Cl)c2Cl	inactive
CN(C(=O)Cc1cccc(N=C=S)c1)[C@H]1CCCC[C@@H]1N1CCCC1	inactive
CCOC(=O)c1c(CN2CCCC2)n(-c2ccccc2)c2cc(Br)c(OC)cc12	inactive
COc1ccc(C(=O)/C=C/c2ccc(OCC(=O)O)cc2)cc1	inactive
Cc1nc2ccc(S(=O)(=O)Nc3ccccc3)cc2c(=O)n1NC(=O)CNc1ccccc1	inactive
